Sourced from patent US7550588B2

Documented Ki across a set of compounds
Target: serotonin transporter (SERT) (Rattus norvegicus)
Construct: striatum and frontal cortex dissected from frozen Sprague-Dawley rat brains (Pel-Freez, Rogers, Ark.); tissue Pel-Freez, Rogers, Ark; host or cells: rat frontal cortex membranes (frozen Sprague-Dawley rat brains)
Sequence (P31652 whole entry): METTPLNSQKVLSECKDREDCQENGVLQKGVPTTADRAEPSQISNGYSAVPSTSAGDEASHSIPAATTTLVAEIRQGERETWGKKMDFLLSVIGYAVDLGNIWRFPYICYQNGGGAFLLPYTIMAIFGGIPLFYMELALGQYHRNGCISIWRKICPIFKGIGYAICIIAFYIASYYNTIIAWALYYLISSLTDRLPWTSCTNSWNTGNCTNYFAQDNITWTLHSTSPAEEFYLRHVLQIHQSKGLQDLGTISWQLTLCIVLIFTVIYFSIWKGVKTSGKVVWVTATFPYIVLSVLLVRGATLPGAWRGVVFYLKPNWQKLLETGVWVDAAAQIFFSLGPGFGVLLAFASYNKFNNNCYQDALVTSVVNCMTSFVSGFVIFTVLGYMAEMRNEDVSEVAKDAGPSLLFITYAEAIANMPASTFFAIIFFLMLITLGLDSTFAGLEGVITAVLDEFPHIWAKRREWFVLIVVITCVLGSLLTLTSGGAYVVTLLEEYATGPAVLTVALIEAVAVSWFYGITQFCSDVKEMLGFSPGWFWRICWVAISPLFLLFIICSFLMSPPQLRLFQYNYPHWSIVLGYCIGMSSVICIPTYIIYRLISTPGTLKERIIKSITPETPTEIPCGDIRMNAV
Experiment: Displacement of [3H]paroxetine binding at 5-HT transport sites in rat frontal cortex membranes
measured metric: Ki (nM)

{"columns": ["compound", "measured metric", "result units", "cmp", "assay value"],
 "data": [
  ["C=Cc1ccc(C2CC3CCC(C2C(=O)CC)N(C)C3)cc1 (stereo not shown) [12e]", "Ki", "nM", "=", 116],
  ["CCC(=O)C1C(c2ccc(C)cc2)C(c2ccccc2)C2(C)CCC1N(C)C2 (stereo not shown) [12j]", "Ki", "nM", ">", 2500],
  ["CCC(=O)C1C(c2ccc(Cl)cc2)CC2CCC1N(C)C2 (stereo not shown) [12d]", "Ki", "nM", "=", 860],
  ["CCC(=O)[C@H]1[C@@H](c2ccc(C(C)C)cc2)C[C@@H]2CC[C@H]1N(C)C2 (racemic) [12c]", "Ki", "nM", "=", 1760]
]}
